# experimental.details: Uncaging quantum yield determination relative to BODIPY reference
# Assay type: physicochemical
# condition.details: at the wavelength in parentheses beside each value (538-660 nm)
Each entry below carries its reported ε × Φu, uncaging cross-section / quantum efficiency.
recorded.metric: ε × Φu, uncaging cross-section / quantum efficiency (M⁻¹ cm⁻¹)

compound | units.symbol | result.number
CC(OC(=O)Cc1ccccc1)c1c2ccc(=O)cc-2oc2cc(N3CCCC3)ccc12 (stereo not drawn) [Compound 39] | M⁻¹ cm⁻¹ | 1070
CC(OC(=O)Cc1ccccc1)C1=C2C=CC(=[N+]3CCCC3)C=C2C(C)(C)c2cc(N3CCCC3)ccc21.[I-] (stereo not drawn) [Compound 43] | M⁻¹ cm⁻¹ | 1400
CC(OC(=O)N1CCN(c2ccccc2)CC1)C1=C2C=CC(=[N+]3CCCC3)C=C2C(C)(C)c2cc(N3CCCC3)ccc21 (stereo not drawn) [Compound 49] | M⁻¹ cm⁻¹ | 690
CC(OC(=O)Cc1ccccc1)c1c2ccc(=[N+]3CCCC3)cc-2oc2cc(N3CCCC3)ccc12.[I-] (stereo not drawn) [Compound 41] | M⁻¹ cm⁻¹ | 1020
CC[N+]1=c2cc3c(cc2C(C)CC1(C)C)=C(C(C)OC(=O)Cc1ccccc1)c1cc2c4c(c1C3(C)C)CCCN4CCC2 (stereo not drawn) [Compound 45] | M⁻¹ cm⁻¹ | 1390
